molecular target: T1, human PAI-1 (human, UniProt P05121 24-402); assay: Biacore, mAb on anti-human IgG Fc chip, 1:1 model
T1 construct: also used for endogenous PAI-1 of human plasma, liver lysate and lung fibroblasts; also called hPAI-1; hPAI
T1 sequence (P05121 24-402 limits assumed): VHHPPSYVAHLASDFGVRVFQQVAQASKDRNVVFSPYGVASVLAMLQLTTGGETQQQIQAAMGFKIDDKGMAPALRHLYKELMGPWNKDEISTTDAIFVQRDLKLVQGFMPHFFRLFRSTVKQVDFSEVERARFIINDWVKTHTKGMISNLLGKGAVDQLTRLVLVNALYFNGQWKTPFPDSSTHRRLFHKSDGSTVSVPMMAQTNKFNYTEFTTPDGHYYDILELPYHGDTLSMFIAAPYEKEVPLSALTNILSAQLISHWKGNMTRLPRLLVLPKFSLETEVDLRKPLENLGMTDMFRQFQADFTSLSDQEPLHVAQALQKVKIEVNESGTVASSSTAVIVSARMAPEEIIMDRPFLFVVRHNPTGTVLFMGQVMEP
So I've got a bunch of binders here, and I need their koff values.
Please give the number followed by its unit.

Would you mind telling me what koff value was observed for A44-hv12 (antibody, V domains shown, humanized A44, HEK293; constant regions as for A44-hv1; also called LC4 x HC3; variant 12) VH: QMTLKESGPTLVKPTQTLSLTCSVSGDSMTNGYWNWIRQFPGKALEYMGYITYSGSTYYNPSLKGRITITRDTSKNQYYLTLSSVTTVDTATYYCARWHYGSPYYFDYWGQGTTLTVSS VL: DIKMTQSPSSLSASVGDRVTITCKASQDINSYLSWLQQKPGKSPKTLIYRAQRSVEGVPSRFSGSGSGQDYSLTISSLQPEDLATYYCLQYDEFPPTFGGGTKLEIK ?
6.7e-05 s⁻¹

Would you mind telling me what koff value was observed for A44-hv14 (antibody, V domains shown, humanized A44, HEK293; constant regions as for A44-hv1; also called LC4 x HC5b; variant 14) VH: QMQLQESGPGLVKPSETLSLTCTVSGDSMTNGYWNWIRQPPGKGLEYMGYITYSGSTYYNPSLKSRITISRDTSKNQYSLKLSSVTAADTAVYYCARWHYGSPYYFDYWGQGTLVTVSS VL: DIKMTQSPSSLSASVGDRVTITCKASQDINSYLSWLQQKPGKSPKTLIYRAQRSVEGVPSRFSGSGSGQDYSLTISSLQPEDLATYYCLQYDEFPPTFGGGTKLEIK ?
3.42e-05 s⁻¹

Would you mind telling me what koff value was observed for A44-hv13 (antibody, V domains shown, humanized A44, HEK293; constant regions as for A44-hv1; also called LC2 x HC5b; variant 13) VH: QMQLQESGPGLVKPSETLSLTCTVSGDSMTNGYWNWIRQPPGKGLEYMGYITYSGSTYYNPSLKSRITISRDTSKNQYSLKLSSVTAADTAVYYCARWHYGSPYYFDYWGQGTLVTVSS VL: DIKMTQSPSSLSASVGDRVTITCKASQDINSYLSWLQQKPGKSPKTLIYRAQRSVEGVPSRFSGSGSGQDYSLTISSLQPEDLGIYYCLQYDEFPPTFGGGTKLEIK ?
2.52e-05 s⁻¹

Would you mind telling me what koff value was observed for A44-hv11 (antibody, V domains shown, humanized A44, HEK293; compared with a human IgG1 isotype control; constant regions as for A44-hv1; also called A44V11; A44v11) VH: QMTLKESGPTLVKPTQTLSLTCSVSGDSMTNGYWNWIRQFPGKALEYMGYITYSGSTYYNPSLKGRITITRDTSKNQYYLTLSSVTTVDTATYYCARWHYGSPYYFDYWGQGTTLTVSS VL: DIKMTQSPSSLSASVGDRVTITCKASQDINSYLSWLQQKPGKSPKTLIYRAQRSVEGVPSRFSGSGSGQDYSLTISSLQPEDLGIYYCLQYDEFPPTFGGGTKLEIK ?
6.68e-05 s⁻¹
